# credit: paper PMC9352680

target.or.test.system: T1, PUF4 RNA-binding domain (Saccharomyces cerevisiae, UniProt P25339 537-888)
T1 sequence: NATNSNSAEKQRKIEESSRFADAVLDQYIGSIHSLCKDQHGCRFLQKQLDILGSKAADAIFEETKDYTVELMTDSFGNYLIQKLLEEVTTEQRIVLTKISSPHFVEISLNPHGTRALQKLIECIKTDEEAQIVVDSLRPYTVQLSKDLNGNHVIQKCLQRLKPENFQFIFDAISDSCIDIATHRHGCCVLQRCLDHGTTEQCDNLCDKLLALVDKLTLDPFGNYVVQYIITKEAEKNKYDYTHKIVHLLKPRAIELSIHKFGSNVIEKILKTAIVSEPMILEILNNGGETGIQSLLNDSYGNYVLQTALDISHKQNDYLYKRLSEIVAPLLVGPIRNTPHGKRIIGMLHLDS
protocol.details: Mg; RNA-MaP; 20 mM Na-HEPES pH 7.4, 30 mM KOAc, 0.75 mM MgCl2, 0.1% Tween-20, 5% glycerol, 0.1 mg/mL BSA, 2 mM DTT; 25 C; 0.0125-409.6 nM protein
condition.description: tags: N-His6-TEV cleaved; C-SNAP kept, Cy3B-labelled; label: tethered on chip by stalled RNA polymerase

>  <binder>
Id_ii_S2_P3E.4_K3.3_C3.2_[C-2T]_[T-1C]_H3.3_A3.1_F3.1_T3.2_[T9C]_[A10C] (ssRNA) RNA: UUUGAUUAAUAUGAUAUCGUUCUUUCUUCACACUAUACCUUCUUUCUCGAUAUCAUAUUAAUCUUU

>  <Kd>
1970 nM

$$$$
>  <binder>
Ic_S4_P5E.1_K5.1_C5.1_H5.1_A5.1_[T5G]_[T6C]_[A7T]_F5.1_[A10T]_T5.1 (ssRNA) RNA: UUUGACAACUGAUCGUUCUUUCUUGUAGCUUUUUUCUUUCUCGAUCAGUUGUCUUU

>  <Kd>
34.7 nM

$$$$
>  <binder>
UCUCUUUGUAUCGUACUCUCUU (ssRNA) [Ic_S1_P5E.1_K5.1_C5.1_H5.1_A5.1_[T6C]_[A7G]_F5.1_[T9A]_[A10C]_T5.1]

>  <Kd>
13.9 nM

$$$$
